- target.system: human LPAAT-β (Homo sapiens)
- Construct: the full-length human LPAAT-β cDNA was amplified by PCR; poly-histidine tag (N); the membrane fraction was used as the enzyme
- assay.details: LPAAT-β cell-free assay
- condition.parameters: Sf9 cell membrane overexpressing recombinant LPAAT-β
Listed below: pIC50 values for each entry.
# log scale: pIC50 equals minus log10 of the concentration in mol/L

{"compound": "COc1ccc(Cl)cc1-c1cc(Nc2ccc(C)cc2)nc(N)n1 [Example 1]", "endpoint.result": 6.92}
{"compound": "Nc1nc(Nc2ccc(C(F)(F)F)cc2)cc(-c2cc(Cl)ccc2Cl)n1 [Example 18]", "endpoint.result": 7.09}
{"compound": "COc1ccc(Cl)cc1-c1cc(Nc2ccc3cn[nH]c3c2)nc(N)n1 [Example 3]", "endpoint.result": 7.10}
{"compound": "Nc1nc(Nc2ccc(Cl)cc2)cc(-c2cc(Cl)cc(Cl)c2Cl)n1 [Example 98]", "endpoint.result": 7.04}

API: the following record is the query input.
Could you share which pIC50 value was measured for CCOc1ccc(Cl)cc1-c1cc(Nc2ccc(CO)cc2)nc(NC)n1 [Example 65] ? 6.85

----------
Listed below: IC50 values for each entry.
- target.system: human LPAAT-β (Homo sapiens, UniProt O15120)
- Construct: the full-length human LPAAT-β cDNA was amplified by PCR; poly-histidine tag (N); made in house; host or cells: Sf9 insect cells (baculovirus, pFastBac HTc); the membrane fraction was used as the enzyme
- Sequence (O15120 24-278): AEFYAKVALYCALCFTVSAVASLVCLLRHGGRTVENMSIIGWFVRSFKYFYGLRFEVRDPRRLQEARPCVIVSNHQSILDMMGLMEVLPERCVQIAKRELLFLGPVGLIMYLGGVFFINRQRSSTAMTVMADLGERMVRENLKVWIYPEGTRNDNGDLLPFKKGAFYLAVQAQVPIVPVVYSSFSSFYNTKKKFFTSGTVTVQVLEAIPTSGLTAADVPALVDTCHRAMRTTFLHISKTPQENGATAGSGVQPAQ
- assay.details: LPAAT-β cell-free assay
- Format: biochemical
- condition.parameters: Sf9 cell membrane overexpressing recombinant LPAAT-β
Could you give me the number in µM? Just the number is fine.

A selection of reference data follows.
{"smiles.data": "Nc1nc(Nc2ccc(Cl)cc2)cc(-c2cc(Br)ccc2OCc2ccc(Cl)cc2)n1", "assay.readout": "IC50", "unit.text": "µM", "endpoint.result": 0.003}
{"smiles.data": "CCc1cccc(Nc2cc(-c3cc(Cl)ccc3C)nc(N)n2)c1", "assay.readout": "IC50", "unit.text": "µM", "endpoint.result": 0.21}
{"smiles.data": "CC(=O)c1ccc(Nc2cc(-c3cc(Cl)ccc3C)nc(N)n2)cc1", "assay.readout": "IC50", "unit.text": "µM", "endpoint.result": 0.15}
{"smiles.data": "CCOc1ccc(Br)cc1-c1cc(Nc2ccc(C(C)=NO)cc2)nc(N)n1", "assay.readout": "IC50", "unit.text": "µM", "endpoint.result": 0.084}
{"smiles.data": "COc1ccc(Cl)cc1-c1nc(N)cc(Nc2ccc(Br)cc2)n1", "assay.readout": "IC50", "unit.text": "µM", "endpoint.result": 8}
{"smiles.data": "COc1ccc(Cl)cc1-c1nc(N)cc(Nc2ccc3cn[nH]c3c2)n1", "assay.readout": "IC50", "unit.text": "µM", "endpoint.result": 2.1}

# get_value(readout='IC50', item= COc1ccc(Cl)cc1-c1cc(Nc2ccc(Cl)cc2)nc(N)n1 ) 0.054

Same question for Cc1ccc(Br)cc1-c1cc(Nc2ccc(N=[N+]=[N-])cc2)nc(N)n1 please. 0.19

Also CCOc1ccc(Br)cc1-c1cc(Nc2ccc(C(C)=O)cc2)nc(N)n1 , if possible. 0.034

Proceed to Cc1ccc(Cl)cc1-c1cc(Nc2ccc(CCO)cc2)ncn1 0.06

Then this molecule: COc1ccc(Cl)cc1-c1cc(Nc2ccc(N)cc2)nc(N)n1 0.095

Proceed to CCOc1ccc(Cl)cc1-c1cc(Nc2ccc(Cl)cc2)nc(N)n1 0.017

Also check CCOc1ccc(Cl)cc1-c1cc(Nc2ccc(F)cc2)nc(N)n1 0.032

Further, for C=CCOc1ccc(Cl)cc1-c1cc(Nc2ccc(Cl)cc2)nc(N)n1 ? 0.009

Data provenance: patent US7419984B2
